- Test system: 409B2 hiPSC (iCRISPR Cas9, FRMD7 editing)
- experimental.details: cell survival relative to solvent control (fold (ratio to mock)); higher = more surviving cells
- condition.description: 500 nM
attribute.measured: cell survival

compound	observed.value
CC(=O)O[C@]1(C(C)=O)CC[C@H]2[C@@H]3C=C(C)C4=CC(=O)CC[C@]4(C)[C@H]3CC[C@@]21C [Megestrol Acetate] (in EtOH)	1.05
Oc1cccc(O)c1 [Resorcinol] (in DMSO)	1.17
OC[C@H]1O[C@@H](c2ccc(F)c(Cc3cc4ccccc4s3)c2)[C@H](O)[C@@H](O)[C@@H]1O [Ipragliflozin] (in DMSO)	0.95
NS(=O)(=O)c1ccccc1 [Benzenesulfonamide] (in DMSO)	1.17
CC(O)C(=O)O (stereo not given) [lactate] (in H2O)	1.08
